Biological target: Cytochrome P450 2C19 (Homo sapiens)
Experiment: Cytochrome P450 Family 2 Subfamily C Member 19 (CYP2C19) small molecule antagonists: luciferase reporter qHTS assay (AID 1671197); further: nearly all actives have a fitted effect of over 65% in size
Details: P450-Glo CYP2C19 enzyme, luciferin luminescence, 1 h; series mostly up to 115 µM
Description: National Center for Advancing Translational Sciences [NCATS] U.S. Environmental Protection Agency [EPA] National Institutes of Environmental Health Sciences [NIEHS] National Toxicology Program [NTP] U.S. Food and Drug Administration [FDA] Cytochrome P450 (CYP) enzymes are membrane-bound hemeproteins that play a key role in metabolism of drugs and xenobiotics. […] The luciferin products formed are detected with a luciferin detection reagent, and the amount of light produced is proportional to CYP activity. […]
Results filed as inconclusive are left out. Active and inactive are the calls of the source. The call rests on the fitted dose curve; in most records, active means well fitted inhibition curve with a large enough effect in the repeat runs; inconclusive means weak or mixed curves; inactive means no such curve, though single readings can be large or run the other way.
Choose the fitting class; nothing outside True = active, False = inactive is accepted.

CC(Cl)COP(=O)(OCC(C)Cl)OCC(C)Cl (centres undefined) ... True
CCCCC(C)C(=O)O (centres undefined) ... True
CCCCOC(=O)[C@@H](C)Oc1ccc(Oc2ccc(C(F)(F)F)cn2)cc1 ... True

input: Per the assay record, what outcome was assigned to "CCOC(=O)OCC/C(SC(=O)OCC)=C(\C)N(C=O)Cc1cnc(C)nc1N" ?
output: False

input: Another compound to check: "C[Si]1(C)N[Si](C)(C)N[Si](C)(C)N1"
output: True

input: Another compound to check: "CCc1nccnc1C"
output: False

* * *

Target: Peroxisome proliferator-activated receptor delta (Homo sapiens)
Assay: qHTS assay to identify small molecule agonists of the peroxisome proliferator-activated receptor delta (PPARd) signaling pathway (AID 743212);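 further: HEK293H cells with PPARd UAS beta-lactamase reporter GeneBLAzer system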
Details: HEK293H PPARd-UAS-bla, beta-lactamase FRET ratio, 17 h; series mostly up to 62.6 µM
Records with an inconclusive call do not appear. Active and inactive are the calls of the source. The call rests on the fitted dose curve.
assay readout: outcome

Illustrative cases are given below, each with its answer.
CCC1Nc2cc(Cl)c(S(N)(=O)=O)cc2S(=O)(=O)N1 (stereo not drawn) ... inactive
Cc1cccc(C(=O)O)c1[N+](=O)[O-] ... inactive
NC(=O)NC(=O)Cc1ccccc1 ... inactive
Cc1cccc(NC(=S)N(C)C)c1 ... inactive
O=S(=O)(O)SSS(=O)(=O)O ... inactive

Below are 3 compounds. Give each one its outcome.
1. O=C(Nc1cccc(C2=NCCN2)c1)Nc1cccc(C2=NCCN2)c1
2. CCc1nccnc1C
3. O=[Si]=O

output:
1. inactive
2. inactive
3. inactive

* * *

Target: Progesterone receptor (Homo sapiens)
Test: qHTS assay to identify small molecule agonists of the progesterone receptor (PR) signaling pathway (AID 1346784); further: nearly all actives have a fitted effect of over 30% in size
Details: PR-UAS-bla HEK293T, beta-lactamase FRET ratio, 16 h; series mostly up to 92.4 µM
Inconclusive results are not listed. The source made the active and inactive calls. Calls come from the whole dose curve.
assay readout: outcome

Illustrative cases are given below, each with its answer.
CC(Cl)COP(=O)(OCC(C)Cl)OCC(C)Cl (centres undefined) ... inactive
CCS(=O)(=O)CCn1c([N+](=O)[O-])cnc1C ... inactive
CCCCC(=O)N(C)C ... inactive
CCCCCCCCCCCCCC(=O)OC ... inactive
CC(=O)N(CC(O)CO)c1c(I)c(C(=O)NCC(O)CO)c(I)c(C(=O)NCC(O)CO)c1I (centres undefined) ... inactive
CN(C)CCOCCN(C)CCO ... inactive
N#CCCOCCOCCC#N ... inactive
CC(=O)OC[C@H]1O[C@@H](OC(C)=O)[C@H](OC(C)=O)[C@@H]1OC(C)=O ... inactive

Below are 4 compounds. Give each one its outcome.
1. O=C(O)c1ccc(OCCN2CCCCC2)cc1
2. NC(=O)NC(=O)Cc1ccccc1
3. Cc1ccccc1OCC1CO1 (centres undefined)
4. C=C(C)C(=O)OC

output:
["inactive", "inactive", "inactive", "inactive"]

Below are 2 compounds. Give each one its outcome.
1. CCCCCCCCOC(C)=O
2. NS(=O)(=O)c1cc2c(cc1Cl)NC(C(Cl)Cl)NS2(=O)=O (centres undefined)

output:
1. inactive
2. inactive
